Measurement Kind: glass transition temperature (°C)

- *C(=O)Nc1ccc(S(=O)(=O)c2ccc(NC(=O)c3ccc4[nH]c(-c5cc(-c6nc7cc(*)ccc7[nH]6)cc(N6C(=O)c7ccccc7C6=O)c5)nc4c3)cc2)cc1 (repeat unit): 325.00
- *C(=O)Nc1ccc(S(=O)(=O)c2ccc(NC(=O)c3ccc4c(c3)C(=O)N(c3cccc(N5C(=O)c6ccc(*)cc6C5=O)c3)C4=O)cc2)cc1 (repeat unit): 342.00
- *c1ccc(Oc2cccc(-n3c(=O)c4cc5c(=O)n(*)c(=O)c5cc4c3=O)c2)cc1 (repeat unit): 397.00
- *C(=O)c1ccc2c(c1)C(=O)N(c1cccc(N3C(=O)c4ccc(*)cc4C3=O)c1)C2=O (repeat unit): 300.00
- *CCCCCCCCOc1ccc(/C=C2\CC/C(=C\c3ccc(OCCCCCCCCOP(=O)(O*)OC)c(OC)c3)C2=O)cc1OC (repeat unit): 73.00

* * *

We begin with a simple list: items and their reported glass transition temperature.
Measurement Kind: glass transition temperature (°C)

* *c1ccc2c(c1)C(=O)N(c1cc(N3C(=O)c4ccc(C(*)(C(F)(F)F)C(F)(F)F)cc4C3=O)ccc1C)C2=O (repeat unit) | 335.00
* *Oc1ccc(C2(c3ccc(OC(*)=O)cc3)CC3CC2C2CCCC32)cc1 (repeat unit) | 251.50
* *c1ccc(Oc2ccc(-c3cc(OCCCCCC)c(-c4ccc(Oc5ccc(-c6nnc(*)o6)cc5)cc4)cc3OCCCCCC)cc2)cc1 (repeat unit) | 103.00
* *C(=O)Nc1cccc(NC(=O)c2ccc3c(c2)C(=O)N(c2cc(-c4nc5ccccc5s4)cc(N4C(=O)c5ccc(*)cc5C4=O)c2)C3=O)n1 (repeat unit) | 358.00
* *CCN(*)C(=O)c1cccc(F)c1F (repeat unit) | 110.00
* *c1ccc2c(c1)C(=O)N(c1cccc(C(C)(C)c3ccc(N4C(=O)c5ccc(C(*)(C(F)(F)F)C(F)(F)F)cc5C4=O)cc3)c1)C2=O (repeat unit) | 260.00
* *CCCCC(=O)Oc1ccc(-c2ccc(OC(=O)c3ccc4c(c3)C(=O)N(*)C4=O)cc2)cc1 (repeat unit) | 123.00
* *c1cccc(Oc2cccc(-n3c(=O)c4cc5c(=O)n(*)c(=O)c5cc4c3=O)c2)c1 (repeat unit) | 285.2
* *CCCCCCNC(=O)CCCCCCCCCCCCCCCCC(=O)N* (repeat unit) | 47.00
* *c1cccc(Oc2cccc(Oc3cccc(N4C(=O)c5c(c(-c6ccccc6)c(-c6ccc(Oc7ccc(-c8c(-c9ccccc9)c9c(c(-c%10ccccc%10)c8-c8ccccc8)C(=O)N(*)C9=O)cc7)cc6)c(-c6ccccc6)c5-c5ccccc5)C4=O)c3)c2)c1 (repeat unit) | 261.00
* *CCN(*)C(=O)c1cc(F)cc(F)c1F (repeat unit) | 110.00
* *CC(OCC)C(C)(C(=O)OC)C(*)(C)C(=O)OC (repeat unit) | 131.00
* *C(=O)c1ccc2c(c1)C(=O)N(c1ccc(C(=O)c3cccc(N4C(=O)c5ccc(*)cc5C4=O)c3)cc1)C2=O (repeat unit) | 282.00
* *[O][Sn]([CH2]CCC)([CH2]CCC)[O]C(=O)CCCCC(*)=O (repeat unit) | 110.00
